- measurement-description: Cell Viability - LYMP2-001 (AID 921);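 also: cells exposed to compound for 24 h at 37 °C; 0% = DMSO only and full inhibition = tetraoctylammonium bromide control wells; nearly all actives have a fitted effect of over 70% in size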
- measurement-context: LYMP2-001 lymphoblastoid cell viability; series mostly up to 92.2 µM
Results filed as inconclusive are left out. Calls of active or inactive are those of the source. Calls follow the shape of the dose curve; as a rule, active = well fitted cell-killing curve with a large enough effect; inconclusive = small, poorly fitted or top-dose-only effect; inactive = no such curve, though single readings can be large or run the other way.
property-label: outcome

Below are worked cases with known answers.
Nc1ccn([C@H]2CC[C@@H](CO)O2)c(=O)n1 = inactive
NCCS(=O)(=O)O = inactive
CCC1(c2ccccc2)C(=O)NCNC1=O = inactive
Clc1ccc(C(c2ccccc2Cl)C(Cl)Cl)cc1 (configuration not stated) = inactive
Cn1c(=O)c2[nH]cnc2n(C)c1=O = inactive

Q. Consider the compound shown here: `Nc1c2c(nc3ccccc13)CCCC2` What is its recorded outcome?
A. inactive

Q. Which outcome value is on record for `Cc1ccc(-c2cc(C(F)(F)F)nn2-c2ccc(S(N)(=O)=O)cc2)cc1` ?
A. inactive

###

- measurement-description: qHTS of pediatric cancer cell lines to identify multiple opportunities for drug repurposing: Confirmatory screen for TC32 cells (AID 1347118);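 also: cells exposed to compound for 48 h before the read; nearly all actives have a fitted effect of over 65% in size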; also: potency is read from the fitted curve at half-maximal effect
- measurement-context: TC32 Ewing sarcoma cells viability qHTS; series mostly up to 45.9 µM
- Procedure: Drug repurposing or repositioning has been offered as a strategy for drug development in oncology programs. […] [1] Shen, M et al. Quantitative high-throughput phenotypic screening of pediatric cancer cell lines identifies multiple opportunities for drug repurposing. […] Cells were assayed in growth media at a density of 500-1,000 cells/well. […] After a 15min incubation at room temperature, samples were analyzed for luminescence intensity using a ViewLux High-throughput CCD imager equipped with clear filters.
Results filed as inconclusive are left out. Active and inactive are the calls of the source. Calls come from the whole dose curve; as a rule, active = well fitted cell-killing curve with a large enough effect; inconclusive = small, poorly fitted or top-dose-only effect; inactive = no such curve, though single readings can be large or run the other way.
property-label: Potency

CC[C@@]1(O)C(=O)OCc2c1cc1n(c2=O)Cc2cc3c(CN(C)C)c(O)ccc3nc2-1 = 58.5 nM (active)
Clc1ccc(C(c2ccccc2Cl)C(Cl)Cl)cc1 (stereo not given) = inactive
COc1cc2c(c(OC)c1OC)-c1ccc(OC)c(=O)cc1[C@@H](NC(C)=O)CC2 = 35.5 nM (active)
NC(=O)NO = 20800 nM (active)
CC(C)Cc1ccc(C(C)C(=O)O)cc1 (stereo not given) = 3690 nM (active)
CN(Cc1cnc2nc(N)nc(N)c2n1)c1ccc(C(=O)N[C@@H](CCC(=O)O)C(=O)O)cc1 = 36.9 nM (active)
O=C(c1ccc(OCCN2CCCCC2)cc1)c1c(-c2ccc(O)cc2)sc2cc(O)ccc12 = 16500 nM (active)
CC(CCc1ccc(O)cc1)NCCc1ccc(O)c(O)c1 (stereo not given) = 20800 nM (active)

Q. I would be grateful if you could share the reported Potency for `CN(C)CCCN1c2ccccc2CCc2ccc(Cl)cc21` .
A. inactive

Q. Bench note: what Potency did `O=C1c2c(O)ccc(O)c2C(=O)c2c(NCCNCCO)ccc(NCCNCCO)c21` show?
A. 131 nM (active)

###

- measurement-description: Primary qHTS for inhibitors of nuclear receptor binding SET domain protein 2 (NSD2) in an RCH-ACV wild type WT cells (2C) (AID 1645877); also: nearly all actives have a fitted effect of over 70% in size
- measurement-context: RCH-ACV (leukaemia line) NSD2 WT (2C) viability, CellTiter-Glo, 72 h; series mostly up to 44.9 µM
Results filed as inconclusive are left out. The source made the active and inactive calls. The call rests on the fitted dose curve; in most records, active means well fitted inhibition curve with a large enough effect; inconclusive means small, poorly fitted or top-dose-only effect; inactive means no such curve, though single readings can be large or run the other way.
Hi! Could you answer with just one of these? active, inactive

Q. Can you look up the reported call for `Cn1c(=O)c2c(ncn2C)n(C)c1=O` for me?
A. inactive

Q. Short answer needed: outcome of this test for `NS(=O)(=O)c1cc2c(cc1Cl)NCNS2(=O)=O` ?
A. inactive

Q. Each molecule tested received a call. Report the one for Cc1ccccc1N1C(=O)c2cc(S(N)(=O)=O)c(Cl)cc2NC1C (stereo not given) .
A. inactive

Q. GET /call?item= `Nc1nc2c(ncn2COC(CO)CO)c(=O)[nH]1` returns the recorded outcome of this test.
A. inactive

Q. Which outcome was entered for the molecule `Cc1cn([C@H]2C=C[C@@H](CO)O2)c(=O)[nH]c1=O` in this test?
A. inactive

Q. Fill in: this test's call for `Nc1nnc(-c2cccc(Cl)c2Cl)c(N)n1` is ___
A. inactive

Q. What call does the record list for `O=C1Cc2cc(CCN3CCN(c4nsc5ccccc45)CC3)c(Cl)cc2N1` ?
A. active

Q. Called result for `COc1cc2nc(N3CCN(C(=O)c4ccco4)CC3)nc(N)c2cc1OC`
A. active

Q. Recorded call for `CN(CCOc1ccc(NS(C)(=O)=O)cc1)CCc1ccc(NS(C)(=O)=O)cc1` ?
A. inactive

Q. Recorded test outcome, item `Clc1ccccc1C(c1ccccc1)(c1ccccc1)n1ccnc1`
A. active

Q. I'd appreciate the recorded outcome for `CN1C(C(=O)Nc2ccccn2)=C(O)c2ccccc2S1(=O)=O` from this test.
A. inactive

Q. Called result for `CC1(C)O[C@H]2CC(=O)OC[C@]23[C@H]2CC[C@@]4(C)[C@H](c5ccoc5)OC(=O)[C@H]5O[C@]54[C@]2(C)C(=O)C[C@@H]13`
A. inactive

Q. Assay outcome for `NCCS(=O)(=O)O` : what was it?
A. inactive

Q. What call does the record list for `CS(=O)(=O)Nc1ccc([N+](=O)[O-])cc1Oc1ccccc1` ?
A. inactive

Q. What did this assay record as the result for `NCCc1cnc[nH]1` ?
A. inactive

###

- Test system: DIV14
- measurement-description: qHTS profiling for inhibitors of Plasmodium falciparum proliferation (AID 504749); also: nearly all actives have a fitted effect of over 60% in size
- measurement-context: P. falciparum in erythrocytes, SYBR Green DNA, 72 h; series mostly up to 28.7 µM
Results filed as inconclusive are left out. Activity calls are given as the source filed them. The call rests on the fitted dose curve; in most records, active means well fitted inhibition curve with a large enough effect; inconclusive means small, poorly fitted or top-dose-only effect; inactive means flat fitted curve, though single readings scatter.
Outcome field: choose from yes (1) (active), no (0) (inactive)

Q. Hello, I am checking results. What call was entered for `NS(=O)(=O)c1cc2c(cc1Cl)NCNS2(=O)=O` ?
A. no (0)

Q. Status in this test for `O=C(Nc1ccc([N+](=O)[O-])cc1Cl)c1cc(Cl)ccc1O` ?
A. yes (1)

Q. Test call, this molecule: `CCOC(=O)c1ncn2c1CN(C)C(=O)c1cc(F)ccc1-2`
A. no (0)

Q. Please indicate how the test categorized `O=C(c1ccc(OCCN2CCCCC2)cc1)c1c(-c2ccc(O)cc2)sc2cc(O)ccc12` .
A. yes (1)

Q. Answer briefly: the call reported for `CN1C(C(=O)Nc2ccccn2)=C(O)c2ccccc2S1(=O)=O` in this assay.
A. no (0)

Q. Dear colleague, could you share the recorded outcome for `NCCCCCC(=O)O` when you have a moment?
A. no (0)

Q. Which outcome did this test record for the molecule `Nc1nc2c(ncn2COC(CO)CO)c(=O)[nH]1` ?
A. no (0)

###

- measurement-description: Drug repurposing screens with cells derived from glioblastoma tumor samples (AID 1345199); also: % is scaled to controls: 0 for no effect and ±100 for the full control effect; nearly all actives have a fitted effect of over 40% in size
- measurement-context: GBM patient neurospheres viability, ATP luminescence, 48 h; at 21.2 µM (top of the series); tumour line D
Results filed as inconclusive are left out.
property-label: activity, negative = cell killing (%)
Number only, in %; omit the unit.

Q. Which activity, negative = cell killing is reported for this compound? COc1ccc(C2CNC(=O)C2)cc1OC1CCCC1 (stereo not given)
A. -16.7

Q. // lookup activity, negative = cell killing for `Cc1cc(C(C)(C)C)cc(C)c1CC1=NCCN1`
A. -25.7

Q. I'd like to know its activity, negative = cell killing. The compound in question is `CN(C)c1nc(N(C)C)nc(N(C)C)n1`
A. -14.3

Q. Fill blank: measured activity, negative = cell killing of the compound `NCCCCCC(=O)O` is ____.
A. -5.09

Q. Requested read-out: activity, negative = cell killing. Entry: COc1cc2nc(N(C)CCCNC(=O)C3CCCO3)nc(N)c2cc1OC (stereo not given)
A. 7.29

###

- measurement-description: Validation screen for small molecules that induce DNA re-replication in MCF 10A normal breast cells (AID 463097); also: nearly all actives have a fitted effect of over 60% in size
- measurement-context: MCF 10A cells, DNA re-replication phenotype imaging; series mostly up to 46.1 µM
Results filed as inconclusive are left out. Activity calls are given as the source filed them. The call rests on the fitted dose curve; in most records, active means well fitted activation curve with a large enough effect; inconclusive means small, poorly fitted or top-dose-only effect; inactive means flat fitted curve, though single readings scatter.
In this exercise, the only acceptable responses are active, inactive

Q. What call does the record list for `CN1C(C(=O)Nc2ccccn2)=C(O)c2ccccc2S1(=O)=O` ?
A. inactive

Q. Dear all, I need the recorded test outcome for CC(C)Cc1ccc(C(C)C(=O)O)cc1 (stereo unspecified) , thank you.
A. inactive

Q. Dear colleague, could you share the recorded outcome for `COc1ccc2[nH]cc(CCNC(C)=O)c2c1` when you have a moment?
A. inactive

Q. Given CCC1(C)CC(=O)NC1=O (stereo unspecified) , state the outcome it received in this test.
A. inactive

Q. Lab log entry: `NCCS(=O)(=O)O` — outcome as called in the assay?
A. inactive

Q. Test call, this compound: `COC(=O)Nc1nc2ccc(C(=O)c3cccs3)cc2[nH]1`
A. active

###

For each record, write down the corresponding Potency.
- tgt: Glucocorticoid receptor (Homo sapiens) (UniProt P04150)
- Sequence (P04150 whole entry, looked up): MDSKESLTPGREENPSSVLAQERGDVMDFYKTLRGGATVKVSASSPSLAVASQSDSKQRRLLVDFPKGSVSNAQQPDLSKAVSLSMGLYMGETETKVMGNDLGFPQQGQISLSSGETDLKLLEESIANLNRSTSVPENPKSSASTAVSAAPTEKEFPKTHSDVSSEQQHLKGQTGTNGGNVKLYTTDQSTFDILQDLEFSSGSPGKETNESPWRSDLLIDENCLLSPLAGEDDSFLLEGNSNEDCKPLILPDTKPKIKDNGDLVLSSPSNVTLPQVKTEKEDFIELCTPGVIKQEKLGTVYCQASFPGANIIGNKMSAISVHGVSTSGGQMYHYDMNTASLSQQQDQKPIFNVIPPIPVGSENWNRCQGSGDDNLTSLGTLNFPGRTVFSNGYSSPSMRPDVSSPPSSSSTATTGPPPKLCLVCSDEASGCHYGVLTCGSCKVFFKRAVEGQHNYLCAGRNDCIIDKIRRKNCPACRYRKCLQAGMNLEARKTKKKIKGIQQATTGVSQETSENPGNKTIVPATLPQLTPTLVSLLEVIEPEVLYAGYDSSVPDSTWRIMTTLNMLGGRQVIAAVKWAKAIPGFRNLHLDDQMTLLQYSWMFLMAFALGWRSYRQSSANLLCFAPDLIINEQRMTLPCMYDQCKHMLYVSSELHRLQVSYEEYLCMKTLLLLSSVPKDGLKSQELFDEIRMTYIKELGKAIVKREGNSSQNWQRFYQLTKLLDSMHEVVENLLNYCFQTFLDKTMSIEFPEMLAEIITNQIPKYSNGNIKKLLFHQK
- measurement-description: GR-GFP Redistribution (AID 450); also: potency is read from the fitted curve at half-maximal effect
- measurement-context: U2OS GR-GFP nuclear translocation, laser cytometry, 2 h
- Description: NIH Molecular Libraries Screening Centers Network [MLSCN] NIH Chemical Genomics Center [NCGC] […] GR-GFP U2OS cells were maintained in DMEM with Glutamax and high glucose, 1% v/v penicillin-streptomycin, and 0.5 mg/mL Geneticin. […] The plates were read by the Acumen Explorer using a 1 x 8 um scan of the whole well area. PI fluorescence triggered the collection of PI and GFP signals. […]
The source made the active and inactive calls.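 How the source made its calls: active means compounds whose dose series gives a full or clear partial fitted curve of increased nuclear translocation; inconclusive means weak partial curve or effect only at the top dose; inactive means no dose-dependent translocation response.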

Q. Item `O=c1[nH]cc(F)c(=O)[nH]1` has what recorded Potency?
A. > 46 µM (inactive)

Q. Please look up its Potency: `NCCc1cnc[nH]1`
A. > 46 µM (inactive)

Q. Entry O=C(C1CCCCC1)N1CC(=O)N2CCc3ccccc3C2C1 (stereo not given) : reported Potency = ?
A. > 20.6 µM (inactive)

Q. Using the record for `O=c1c(-c2ccc(O)cc2)coc2cc(O)cc(O)c12` , report its Potency.
A. > 46 µM (inactive)

Q. Reported Potency for `CCOC(=O)Nc1ccc(NCc2ccc(F)cc2)nc1N` : what is it?
A. > 46 µM (inactive)

Q. Endpoint output: Potency of `Cc1ccc(C(=O)Nc2ccc(S(=O)(=O)O)c3cc(S(=O)(=O)O)cc(S(=O)(=O)O)c23)cc1NC(=O)c1cccc(NC(=O)Nc2cccc(C(=O)Nc3cc(C(=O)Nc4ccc(S(=O)(=O)O)c5cc(S(=O)(=O)O)cc(S(=O)(=O)O)c45)ccc3C)c2)c1` . Value?
A. > 46 µM (inactive)

Q. Entry under review: `Cn1ccc2cc3c(cc21)CCN3C(=O)Nc1cccnc1` . Reported Potency?
A. > 46 µM (inactive)

Q. Entry CC(C)Cc1ccc(C(C)C(=O)O)cc1 (stereo not given) has what Potency?
A. > 20.6 µM (inactive)

Q. Which Potency is listed for `N[C@@H](Cc1c[nH]c2ccc(O)cc12)C(=O)O` ?
A. > 46 µM (inactive)

Q. Item under review: `CC[C@@]1(O)C(=O)OCc2c1cc1n(c2=O)Cc2cc3c(CN(C)C)c(O)ccc3nc2-1` . Reported Potency?
A. > 46 µM (inactive)
